Listing of recorded Ki by entry.
biological target: LIMK1 (Homo sapiens (Human)); assay: Lanthascreen Eu binding assay (TR-FRET), inhibition of LIMK1
Sequence (P53667 whole entry): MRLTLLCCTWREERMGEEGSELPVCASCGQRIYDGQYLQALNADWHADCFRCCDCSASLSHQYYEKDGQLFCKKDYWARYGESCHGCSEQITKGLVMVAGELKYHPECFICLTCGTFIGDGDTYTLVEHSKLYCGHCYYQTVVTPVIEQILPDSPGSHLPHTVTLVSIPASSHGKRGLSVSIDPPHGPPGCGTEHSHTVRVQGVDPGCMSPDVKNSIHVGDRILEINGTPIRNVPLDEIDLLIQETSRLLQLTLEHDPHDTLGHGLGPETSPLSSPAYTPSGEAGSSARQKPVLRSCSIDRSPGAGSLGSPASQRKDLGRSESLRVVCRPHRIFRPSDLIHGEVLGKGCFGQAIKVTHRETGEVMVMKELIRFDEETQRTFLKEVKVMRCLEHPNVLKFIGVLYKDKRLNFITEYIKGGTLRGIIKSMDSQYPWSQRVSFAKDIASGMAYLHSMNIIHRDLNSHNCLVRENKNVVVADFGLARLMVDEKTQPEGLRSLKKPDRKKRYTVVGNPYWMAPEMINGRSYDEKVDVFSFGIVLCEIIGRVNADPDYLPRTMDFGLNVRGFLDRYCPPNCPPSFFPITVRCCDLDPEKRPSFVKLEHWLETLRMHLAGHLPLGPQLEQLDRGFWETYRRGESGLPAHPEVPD

{"compoundString": "O=C(Nc1cccc(Br)c1)N1CC=C(c2ncnc3[nH]c4c(c23)CCCCC4)CC1", "Ki, nM": 14.7}
{"compoundString": "CN1CCc2[nH]c3ncnc(C4=CCN(C(=O)Nc5cccc(Br)c5)CC4)c3c2C1", "Ki, nM": 722}
{"compoundString": "CC1=CC(C)=[N+]2C1=Cc1ccc(CCC(=O)NCCCOc3cccc(-c4cccc(NC(=O)N5CC=C(c6ncnc7[nH]c8c(c67)CCC8)CC5)c4)c3)n1[B-]2(F)F", "Ki, nM": 112}
{"compoundString": "O=C(Nc1cccc(Br)c1)N1CC=C(c2ncnc3[nH]c4c(c23)CCC4)CC1", "Ki, nM": 7}
{"compoundString": "O=C(Nc1cccc(Br)c1)N1CC=C(c2ncnc3[nH]c4c(c23)CCCC4)CC1", "Ki, nM": 5.37}

----------
Listing of recorded inhibition at 1 µM by entry.
biological target: ROCK1 (Homo sapiens (Human), UniProt Q13464); experiment: Z'Lyte assay, ROCK1 inhibition at a single concentration; format: biochemical; conditions: read-out: % inhibition (ROCK1) 1 uM, 1 uM
Sequence (Q13464 whole entry): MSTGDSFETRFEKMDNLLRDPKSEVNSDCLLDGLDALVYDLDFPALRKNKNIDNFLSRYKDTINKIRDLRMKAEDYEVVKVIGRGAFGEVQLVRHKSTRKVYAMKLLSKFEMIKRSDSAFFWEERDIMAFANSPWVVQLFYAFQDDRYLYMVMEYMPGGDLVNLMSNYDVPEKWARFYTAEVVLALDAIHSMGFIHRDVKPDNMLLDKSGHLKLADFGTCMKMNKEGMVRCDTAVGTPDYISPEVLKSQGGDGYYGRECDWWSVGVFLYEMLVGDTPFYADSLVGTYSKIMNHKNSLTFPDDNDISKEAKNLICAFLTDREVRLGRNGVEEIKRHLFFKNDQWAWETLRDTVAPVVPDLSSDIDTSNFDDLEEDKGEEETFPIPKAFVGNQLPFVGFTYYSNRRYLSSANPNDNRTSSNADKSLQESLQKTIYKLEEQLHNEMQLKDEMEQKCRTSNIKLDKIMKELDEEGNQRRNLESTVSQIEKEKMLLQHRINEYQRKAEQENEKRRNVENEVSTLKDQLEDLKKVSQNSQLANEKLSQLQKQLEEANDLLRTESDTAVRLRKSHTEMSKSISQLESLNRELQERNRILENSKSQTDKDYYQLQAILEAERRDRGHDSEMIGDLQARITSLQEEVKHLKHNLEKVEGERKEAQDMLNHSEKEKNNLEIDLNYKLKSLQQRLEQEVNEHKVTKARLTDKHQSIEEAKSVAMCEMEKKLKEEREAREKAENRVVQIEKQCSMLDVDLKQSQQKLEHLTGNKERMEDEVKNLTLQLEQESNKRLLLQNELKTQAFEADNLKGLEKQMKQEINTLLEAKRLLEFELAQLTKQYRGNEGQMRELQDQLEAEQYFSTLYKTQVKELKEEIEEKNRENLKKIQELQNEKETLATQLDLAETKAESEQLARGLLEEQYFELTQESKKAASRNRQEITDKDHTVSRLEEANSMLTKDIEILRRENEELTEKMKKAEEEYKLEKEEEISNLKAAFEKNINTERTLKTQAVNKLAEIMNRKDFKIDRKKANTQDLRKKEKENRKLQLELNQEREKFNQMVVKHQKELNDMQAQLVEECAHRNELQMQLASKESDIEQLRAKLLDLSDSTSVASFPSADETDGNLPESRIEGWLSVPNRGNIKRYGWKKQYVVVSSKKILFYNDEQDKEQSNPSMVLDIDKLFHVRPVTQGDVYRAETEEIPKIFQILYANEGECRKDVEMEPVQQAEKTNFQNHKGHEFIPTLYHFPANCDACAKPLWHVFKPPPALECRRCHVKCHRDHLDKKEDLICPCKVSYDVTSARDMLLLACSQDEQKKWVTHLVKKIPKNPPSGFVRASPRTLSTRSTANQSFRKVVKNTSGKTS
measuredQuantity: inhibition at 1 µM (%)

{"compound": "Cc1c[nH]c2ncnc(C3=CCN(C(=O)Nc4cccc(Oc5ccc(Br)cc5Cl)c4)CC3)c12 [Compound 206]", "measuredQuantity": "inhibition at 1 µM", "reportedResult": 13}
{"compound": "Cc1c[nH]c2ncnc(C3=CCN(C(=O)Nc4cccc(Oc5cccc(OCc6ccccc6)c5)c4)CC3)c12 [Compound 211]", "measuredQuantity": "inhibition at 1 µM", "reportedResult": 5}
{"compound": "CNC(=O)c1cc(Oc2ccc(NC(=O)N3CC=C(c4ncnc5[nH]cc(C)c45)CC3)cc2)ccn1 [Compound 196]", "measuredQuantity": "inhibition at 1 µM", "reportedResult": 21}
{"compound": "Cc1c[nH]c2ncnc(C3=CCN(C(=O)Nc4cccc(Oc5cccc(O)c5)c4)CC3)c12 [Compound 213]", "measuredQuantity": "inhibition at 1 µM", "reportedResult": 55}
{"compound": "COc1cccc(NC(=O)N2CC=C(c3ncnc4[nH]c5c(c34)CCC5)CC2)c1 [Compound 121]", "measuredQuantity": "inhibition at 1 µM", "reportedResult": 3}
{"compound": "Cc1c[nH]c2ncnc(C3=CCN(C(=O)Nc4cccc(-c5cccc(OCCCNC(=O)OC(C)(C)C)c5)c4)CC3)c12 [Compound 166]", "measuredQuantity": "inhibition at 1 µM", "reportedResult": 12}
{"compound": "CN(C)C(=O)Nc1cccc(NC(=O)N2CC=C(c3ncnc4[nH]c5c(c34)CCC5)CC2)c1 [Compound 131]", "measuredQuantity": "inhibition at 1 µM", "reportedResult": 14}

----------
Listing of recorded inhibition at 1 µM by entry.
biological target: ROCK2 (Homo sapiens (Human), UniProt O75116); test: Z'Lyte assay, ROCK2 inhibition at a single concentration; assay type: biochemical; details: read-out: % inhibition (ROCK2) 1 uM, 1 uM
Sequence (O75116 whole entry): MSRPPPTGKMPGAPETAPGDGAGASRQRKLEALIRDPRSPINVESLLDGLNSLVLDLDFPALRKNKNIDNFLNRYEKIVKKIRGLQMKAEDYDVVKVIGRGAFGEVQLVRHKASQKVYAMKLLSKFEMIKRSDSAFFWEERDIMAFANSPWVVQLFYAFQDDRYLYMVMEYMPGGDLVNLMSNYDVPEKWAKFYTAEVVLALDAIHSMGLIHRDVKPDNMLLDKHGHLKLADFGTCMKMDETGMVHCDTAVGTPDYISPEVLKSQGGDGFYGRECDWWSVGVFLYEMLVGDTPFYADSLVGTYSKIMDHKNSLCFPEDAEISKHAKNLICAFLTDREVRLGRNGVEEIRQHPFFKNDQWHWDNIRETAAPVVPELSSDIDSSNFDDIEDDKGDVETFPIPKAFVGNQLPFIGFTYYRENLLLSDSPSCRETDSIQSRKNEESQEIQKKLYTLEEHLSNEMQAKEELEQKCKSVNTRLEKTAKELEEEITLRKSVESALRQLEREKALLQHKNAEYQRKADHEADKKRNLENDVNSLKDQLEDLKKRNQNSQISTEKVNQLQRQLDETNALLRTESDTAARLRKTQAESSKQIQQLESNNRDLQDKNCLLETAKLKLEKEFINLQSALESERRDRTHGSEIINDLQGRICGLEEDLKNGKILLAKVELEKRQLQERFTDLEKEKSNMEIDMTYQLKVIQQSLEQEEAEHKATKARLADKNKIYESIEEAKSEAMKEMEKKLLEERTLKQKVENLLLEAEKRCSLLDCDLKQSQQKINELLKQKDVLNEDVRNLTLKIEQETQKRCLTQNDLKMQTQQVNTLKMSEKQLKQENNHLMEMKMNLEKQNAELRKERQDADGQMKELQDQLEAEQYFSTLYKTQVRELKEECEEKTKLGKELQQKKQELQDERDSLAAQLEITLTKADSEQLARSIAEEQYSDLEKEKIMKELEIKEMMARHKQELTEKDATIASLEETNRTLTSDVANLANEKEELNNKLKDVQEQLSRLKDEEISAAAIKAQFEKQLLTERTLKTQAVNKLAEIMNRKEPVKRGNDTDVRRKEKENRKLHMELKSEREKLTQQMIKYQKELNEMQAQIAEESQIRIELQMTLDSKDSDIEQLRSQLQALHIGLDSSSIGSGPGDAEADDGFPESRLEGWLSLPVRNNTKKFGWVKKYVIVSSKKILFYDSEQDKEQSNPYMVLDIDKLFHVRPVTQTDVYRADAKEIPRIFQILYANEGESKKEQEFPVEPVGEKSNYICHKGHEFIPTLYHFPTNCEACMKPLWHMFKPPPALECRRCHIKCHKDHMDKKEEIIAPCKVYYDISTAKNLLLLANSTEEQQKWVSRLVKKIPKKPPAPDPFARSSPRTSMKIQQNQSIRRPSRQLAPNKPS
measuredQuantity: inhibition at 1 µM (%)

{"compoundString": "Cc1c[nH]c2ncnc(C3=CCN(C(=O)Nc4cccc(OCCCNC(=O)OC(C)(C)C)c4)CC3)c12", "measuredQuantity": "inhibition at 1 µM", "unitsText": "%", "reportedResult": 33}
{"compoundString": "Cc1c[nH]c2ncnc(C3=CCN(C(=O)Nc4cccc(Oc5ccc(Br)cc5Cl)c4)CC3)c12", "measuredQuantity": "inhibition at 1 µM", "unitsText": "%", "reportedResult": 3}
{"compoundString": "Cc1c[nH]c2ncnc(C3=CCN(C(=O)Nc4cccc(OCC5CCN(C)CC5)c4)CC3)c12", "measuredQuantity": "inhibition at 1 µM", "unitsText": "%", "reportedResult": 93}
{"compoundString": "Cc1c[nH]c2ncnc(C3=CCN(C(=O)Nc4cccc(Oc5ccccc5)c4)CC3)c12", "measuredQuantity": "inhibition at 1 µM", "unitsText": "%", "reportedResult": 24}

----------
Listing of recorded inhibition at 1 µM by entry.
target: ROCK1 (Homo sapiens (Human), UniProt Q13464); test: Z'Lyte assay, ROCK1 inhibition at a single concentration; assay type: biochemical; conditions: read-out: % inhibition (ROCK1) 1 uM, 1 uM
measuredQuantity: inhibition at 1 µM

{"compoundString": "Cc1c[nH]c2ncnc(C3=CCN(C(=O)Nc4cccc(OCCN5CCN(C)CC5)c4)CC3)c12", "reportedResult": "87%"}
{"compoundString": "Cc1c[nH]c2ncnc(C3=CCN(C(=O)Nc4cccc(OCCCNC(=O)OC(C)(C)C)c4)CC3)c12", "reportedResult": "48%"}
{"compoundString": "O=C(Nc1cccc(Oc2ccccc2)c1)N1CC=C(c2ncnc3[nH]cc(C4CC4)c23)CC1", "reportedResult": "6%"}
{"compoundString": "Cc1c[nH]c2ncnc(C3=CCN(C(=O)Nc4cccc(OCC5CCN(C)CC5)c4)CC3)c12", "reportedResult": "99%"}
{"compoundString": "COCOCc1cccc(NC(=O)N2CC=C(c3ncnc4[nH]c5c(c34)CCC5)CC2)c1", "reportedResult": "-14%"}
{"compoundString": "N#Cc1cccc(NC(=O)N2CC=C(c3ncnc4[nH]c5c(c34)CCC5)CC2)c1", "reportedResult": "3%"}
{"compoundString": "CN(C)C(=O)c1cccc(NC(=O)N2CC=C(c3ncnc4[nH]c5c(c34)CCC5)CC2)c1", "reportedResult": "-20%"}

----------
Listing of recorded inhibition at 1 µM by entry.
target: ROCK2 (Homo sapiens (Human), UniProt O75116); experiment: Z'Lyte assay, ROCK2 inhibition at a single concentration; type: biochemical; details: read-out: % inhibition (ROCK2) 1 uM, 1 uM
measuredQuantity: inhibition at 1 µM (%)

{"compound": "Cc1c[nH]c2ncnc(C3=CCN(C(=O)Nc4cccc(Oc5cccc(OCc6ccccc6)c5)c4)CC3)c12 [Compound 211]", "studySystem": "ROCK2 (Homo sapiens (Human), UniProt O75116)", "reportedResult": 3}
{"compound": "CN(C)Cc1cccc(NC(=O)N2CC=C(c3ncnc4[nH]c5c(c34)CCC5)CC2)c1 [Compound 132]", "studySystem": "ROCK2 (Homo sapiens (Human), UniProt O75116)", "reportedResult": 2}
{"compound": "CN(C)C(=O)c1cccc(NC(=O)N2CC=C(c3ncnc4[nH]c5c(c34)CCC5)CC2)c1 [Compound 134]", "studySystem": "ROCK2 (Homo sapiens (Human), UniProt O75116)", "reportedResult": -5}
{"compound": "CNC(=O)c1cccc(Oc2cccc(NC(=O)N3CC=C(c4ncnc5[nH]cc(C)c45)CC3)c2)c1 [Compound 222]", "studySystem": "ROCK2 (Homo sapiens (Human), UniProt O75116)", "reportedResult": 48}
{"compound": "O=C(Nc1cccc(N2CCOCC2)c1)N1CC=C(c2ncnc3[nH]c4c(c23)CCC4)CC1 [Compound 130]", "studySystem": "ROCK2 (Homo sapiens (Human), UniProt O75116)", "reportedResult": 0}
{"compound": "CN(C)C(=O)Nc1cccc(NC(=O)N2CC=C(c3ncnc4[nH]c5c(c34)CCC5)CC2)c1 [Compound 131]", "studySystem": "ROCK2 (Homo sapiens (Human), UniProt O75116)", "reportedResult": 1}
{"compound": "O=C(Nc1cccc(F)c1)N1CC=C(c2ncnc3[nH]c4c(c23)CCCC4)CC1 [Compound 113]", "studySystem": "ROCK2 (Homo sapiens (Human), UniProt O75116)", "reportedResult": 4}
{"compound": "CCc1cccc(NC(=O)N2CC=C(c3ncnc4[nH]c5c(c34)CCC5)CC2)c1 [Compound 129]", "studySystem": "ROCK2 (Homo sapiens (Human), UniProt O75116)", "reportedResult": 11}

----------
molecular target: LIMK1 (Homo sapiens (Human)); assay: Lanthascreen Eu binding assay (TR-FRET), inhibition of LIMK1; conditions: Lanthascreen Eu binding assay
pKi: −log10 of the molar value.
Classification field: 1 = pKi at or over 8; 0 = pKi under 8.

{"compoundString": "O=C(Nc1cccc(Oc2ccccc2)c1)N1CC=C(c2ncnc3[nH]cc(C4CC4)c23)CC1", "labelValue": 0}
{"compoundString": "CC(C)(C)OC(=O)NCCCOc1cccc(-c2cccc(NC(=O)N3CC=C(c4ncnc5[nH]c6c(c45)CCC6)CC3)c2)c1", "labelValue": 0}
{"compoundString": "O=C(Nc1cccc(C(F)(F)F)c1)N1CC=C(c2ncnc3[nH]c4c(c23)CCC4)CC1", "labelValue": 0}
{"compoundString": "CN(C)Cc1cccc(NC(=O)N2CC=C(c3ncnc4[nH]c5c(c34)CCC5)CC2)c1", "labelValue": 0}
{"compoundString": "O=C(Nc1cccc(Cl)c1)N1CC=C(c2ncnc3[nH]c4c(c23)CCCCC4)CC1", "labelValue": 0}
{"compoundString": "Cc1c[nH]c2ncnc(C3=CCN(C(=O)Nc4cccc(OCCCNC(=O)OC(C)(C)C)c4)CC3)c12", "labelValue": 0}
{"compoundString": "Cc1c[nH]c2ncnc(C3=CCN(C(=O)Nc4cccc(-c5cccc(OCCCNC(=O)OC(C)(C)C)c5)c4)CC3)c12", "labelValue": 0}
{"compoundString": "CNC(=O)c1cccc(NC(=O)N2CC=C(c3ncnc4[nH]c5c(c34)CCC5)CC2)c1", "labelValue": 0}
{"compoundString": "Cc1c[nH]c2ncnc(C3=CCN(C(=O)Nc4cccc(Oc5ccccc5)c4)CC3)c12", "labelValue": 0}
{"compoundString": "Cc1c[nH]c2ncnc(C3=CCN(C(=O)Nc4cccc(Oc5cccc(OC(=O)N(C)C)c5)c4)CC3)c12", "labelValue": 1}
{"compoundString": "COc1cccc(Oc2cccc(NC(=O)N3CC=C(c4ncnc5[nH]cc(C6CC6)c45)CC3)c2)c1", "labelValue": 0}
{"compoundString": "CNC(=O)c1cc(Oc2ccc(NC(=O)N3CC=C(c4ncnc5[nH]cc(C)c45)CC3)cc2)ccn1", "labelValue": 0}
{"compoundString": "CN1CCc2[nH]c3ncnc(C4=CCN(C(=O)Nc5cccc(Cl)c5)CC4)c3c2C1", "labelValue": 0}
{"compoundString": "Cc1c[nH]c2ncnc(C3=CCN(C(=O)Nc4cccc(Oc5ccc(Br)cc5Cl)c4)CC3)c12", "labelValue": 0}
{"compoundString": "O=C(Nc1cccc(Cl)c1)N1CC=C(c2ncnc3[nH]c4c(c23)CCC4)CC1", "labelValue": 1}
{"compoundString": "Cc1c[nH]c2ncnc(C3=CCN(C(=O)Nc4cccc(OCC5CCN(C)CC5)c4)CC3)c12", "labelValue": 0}
{"compoundString": "COCOCc1cccc(NC(=O)N2CC=C(c3ncnc4[nH]c5c(c34)CCC5)CC2)c1", "labelValue": 0}
{"compoundString": "Cc1c[nH]c2ncnc(C3=CCN(C(=O)Nc4cccc(Oc5cccc(F)c5)c4)CC3)c12", "labelValue": 0}
{"compoundString": "CNC(=O)c1cccc(Oc2cccc(NC(=O)N3CC=C(c4ncnc5[nH]cc(C)c45)CC3)c2)c1", "labelValue": 1}
{"compoundString": "Cc1c[nH]c2ncnc(C3=CCN(C(=O)Nc4cccc(Oc5cccc(Cl)c5)c4)CC3)c12", "labelValue": 0}
{"compoundString": "Cc1c[nH]c2ncnc(C3=CCN(C(=O)Nc4cccc(Oc5cccnc5)c4)CC3)c12", "labelValue": 0}
{"compoundString": "CN(C)C(=O)c1cccc(NC(=O)N2CC=C(c3ncnc4[nH]c5c(c34)CCC5)CC2)c1", "labelValue": 0}
{"compoundString": "CC(=O)Nc1cccc(Oc2cccc(NC(=O)N3CC=C(c4ncnc5[nH]cc(C)c45)CC3)c2)c1", "labelValue": 1}
